# Lookup of reported IC50 keyed by entry
- Tested on: WI-38
- MEASUREMENT_PROTOCOL: Growth inhibition of human WI38 cells
- Assay type: functional, cell-based
Field: numeric (µg/mL). Do not append units.

These recorded examples may help you get a feel for the data.
>  <COMPOUND>
COc1cc([C@@H]2OC[C@@H]3[C@H]2CO[C@H]3c2cc(OC)c3c(c2)OCO3)cc(O)c1O

>  <QUANTITATIVE_READOUT>
49.8

$$$$
>  <COMPOUND>
COc1cc([C@@H]2c3c(cc4c(c3OC)OCO4)C[C@H](COC(C)=O)[C@@H]2COC(C)=O)cc(OC)c1O

>  <QUANTITATIVE_READOUT>
41.3

$$$$
>  <COMPOUND>
COc1cc(C[C@H]2CO[C@H](c3cc(OC)c4c(c3)OCO4)[C@H]2CO)cc2c1OCO2

>  <QUANTITATIVE_READOUT>
74.3

$$$$

We now examine a further compound.
Q: I'd like to know its IC50. The compound in question is COc1cccc2c1C(=O)c1c(O)c3c(c(O)c1C2=O)C[C@@](O)(C(=O)CO)C[C@@H]3O[C@H]1C[C@H](N)[C@H](O)[C@H](C)O1 [DOXORUBICIN]
Ans: 0.76
